Target or system: T1, extracellular domain (ECD) of human αKlotho, amino acids E34-S981 with C-terminal 6-His tag (R&D Systems … (human, UniProt Q9UEF7 34-981))
T1 construct: range 34-981; also called αKlotho (aa34-981); target antigen
T1 sequence: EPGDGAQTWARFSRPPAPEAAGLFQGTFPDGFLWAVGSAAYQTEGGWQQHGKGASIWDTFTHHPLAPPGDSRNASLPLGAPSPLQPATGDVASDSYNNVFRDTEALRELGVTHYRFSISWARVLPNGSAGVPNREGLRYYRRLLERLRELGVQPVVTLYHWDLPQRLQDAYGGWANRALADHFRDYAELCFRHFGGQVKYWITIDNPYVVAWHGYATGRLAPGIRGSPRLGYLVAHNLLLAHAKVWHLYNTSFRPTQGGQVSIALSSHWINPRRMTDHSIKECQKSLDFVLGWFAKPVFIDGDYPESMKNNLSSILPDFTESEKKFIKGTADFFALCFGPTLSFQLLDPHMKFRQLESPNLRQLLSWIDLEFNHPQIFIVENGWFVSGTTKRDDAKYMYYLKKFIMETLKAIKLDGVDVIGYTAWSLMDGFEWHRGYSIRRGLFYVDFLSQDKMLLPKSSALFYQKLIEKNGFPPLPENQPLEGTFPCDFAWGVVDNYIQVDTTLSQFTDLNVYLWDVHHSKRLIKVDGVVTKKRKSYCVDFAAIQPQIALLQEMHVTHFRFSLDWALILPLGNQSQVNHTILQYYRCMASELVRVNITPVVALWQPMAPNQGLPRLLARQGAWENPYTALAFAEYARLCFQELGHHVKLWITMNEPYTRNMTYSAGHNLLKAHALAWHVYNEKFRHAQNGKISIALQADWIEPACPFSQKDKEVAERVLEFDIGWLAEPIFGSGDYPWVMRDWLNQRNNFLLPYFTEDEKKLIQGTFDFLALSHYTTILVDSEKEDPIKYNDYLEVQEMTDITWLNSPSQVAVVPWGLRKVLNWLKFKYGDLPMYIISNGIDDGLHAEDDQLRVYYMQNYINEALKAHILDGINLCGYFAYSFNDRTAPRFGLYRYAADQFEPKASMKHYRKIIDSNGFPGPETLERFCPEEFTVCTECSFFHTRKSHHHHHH
Assay procedure: SPR, Fab captured by anti-H+L IgG, αKlotho injected at 50 to 6.25 ug/ml, Langmuir fit
pKd: −log10 of the molar value.

| Binder | pKd |
| --- | --- |
| anti-αKlotho Fab clone 4805 (Fab, V domains shown, Fab (also as Fab-phage); FLAG tag on light chain; also called sb174) VH: EVQLVESGGGLVQPGGSLRLSCAASGFNLSYYSMHWVRQAPGKGLEWVASISSYYGSTYYADSVKGRFTISADTSKNTAYLQMNSLRAEDTAVYYCARGGGYYSGPYAGFDYWGQGTLVTVSS VL: DIQMTQSPSSLSASVGDRVTITCRASQSVSSAVAWYQQKPGKAPKLLIYSASSLYSGVPSRFSGSRSGTDFTLTISSLQPEDFATYYCQQSSGWYHFLFTFGQGTKVEIKR | 9.93 |

Source of measurements: patent US20190041402A1
